Data credit: ChEMBL document CHEMBL1201862

- Tested on: Malme-3M
- assay_overview: NCI tumour cell line growth inhibition, 48 h
Calls of active or inactive are those of the source. Cut-off read from the data, not from the text of the source: active = GI50 up to about 1.1 µM and inactive = higher.
// allowed return values: active, inactive

>>> print(df.to_string())
                      smiles_representation  assigned_label
0    COc1ccnc2c1C(=O)c1nc3ccccc3c3ccnc-2c13          active
1  COc1ccc(S(=O)(=O)Nc2ccc(-c3csc(N4C(=O)/C(=C/c5ccccc5[N+](=O)[O-])N=C4c4ccccc4)n3)cc2)cc1Cl        inactive
2  COc1cccc([C@@]2(O)c3c(ccc(O)c3OC)[C@H]2OC)c1OC        inactive

Then this compound:
Exercise: // outcome(item) with item = `C/C1=C\[C@@H](C)C[C@@H](C)OC(=O)[C@@H](C)NC(=O)[C@H](Cc2ccc(O)c(Br)c2)N(C)C(=O)CNC(=O)[C@H](C)C1`
Solution: active
